# PROTOCOL_NOTES: n-octanol/water partition coefficient LogP (JIS Z 7260-117)
# EXPERIMENTAL_PARAMETERS: n-octanol/water
MEASURED_QUANTITY: chromatographic logP
Numbers only.

Please give the documented chromatographic logP of C=C(C)C(=O)OC [methyl methacrylate]
1.38

Please look at the items below and tell me chromatographic logP for each one, in order.
1. C=CC(=O)OCC(C)C [isobutyl acrylate]
2. C=CC(=O)OCCCC [n-butyl acrylate]
3. C=CC(=O)OCCO [2-hydroxyethyl acrylate]

1: 2.16; 2: 2.32; 3: 0.01

Please look at the items below and tell me chromatographic logP for each one, in order.
1. C=C(C)C(=O)OCCCCCCCCCCCCCCCCCC [stearyl methacrylate]
2. C=CC(=O)OCC(CC)CCCC (stereo not drawn) [2-ethylhexyl acrylate]

1: 9.87; 2: 4.2

====

# PROTOCOL_NOTES: physchem
# EXPERIMENTAL_PARAMETERS: LogP
MEASURED_QUANTITY: chromatographic logP
Give bare numbers.

Here are 3 molecules together with their reported answers.
Please give the documented chromatographic logP of C=CC(=O)N(C)C [N, N-dimethylacrylamide]
-0.14

Please give the documented chromatographic logP of C=C(C)C(=O)OCC(CC)CCCC (stereo not shown) [2-ethylhexyl methacrylate]
4.62

Please give the documented chromatographic logP of C=CC(=O)NCO [N-hydroxymethylacrylamide]
-1.38

Shifting focus to the molecule that follows.
Please give the documented chromatographic logP of C=CC(=O)NCC [N-ethylacrylamide]
-0.08

====

# PROTOCOL_NOTES: n-octanol/water partition coefficient LogP (JIS Z 7260-117)
# EXPERIMENTAL_PARAMETERS: n-octanol/water, LogP, n-octanol/water partition coefficient
Each record's chromatographic logP is compared with low bracket: < -0.1; middle bracket: ≥ -0.1 and < 0.8; high bracket: ≥ 0.8 to give its class.

Some solved cases for reference:
Which of the defined bands does the recorded chromatographic logP of C=C(C)C(=O)OCC(C)C [isobutyl methacrylate] sit within?
high bracket

Which of the defined bands does the recorded chromatographic logP of `O=C(O)/C=C\C(=O)O` sit within?
low bracket

Which of the defined bands does the recorded chromatographic logP of C=CC(=O)NCC(C)O (centres unmarked) [N-(2-hydroxypropyl) acrylamide] sit within?
low bracket

Which of the defined bands does the recorded chromatographic logP of C=CC(=O)NCCC [N-propylacrylamide] sit within?
middle bracket

Which of the defined bands does the recorded chromatographic logP of C=CC(=O)OCC(C)O (centres unmarked) [2-hydroxypropyl acrylate] sit within?
middle bracket

More entries:
Which of the defined bands does the recorded chromatographic logP of C=C(C)C(=O)NCC [N-ethylmethacrylamide] sit within?
middle bracket

Which of the defined bands does the recorded chromatographic logP of C=C(C)C(N)=O [methacrylamide] sit within?
low bracket

====

# PROTOCOL_NOTES: n-octanol/water partition coefficient LogP (JIS Z 7260-117)
# EXPERIMENTAL_PARAMETERS: n-octanol/water
Record form. Attribute: chromatographic logP. Fill in for each entry.
Give bare numbers.

Here are 2 compounds together with their reported answers.
Please give the documented chromatographic logP of C=C(C)C(=O)OC1CCCCC1 [cyclohexyl methacrylate]
3.18

Please give the documented chromatographic logP of C=CC(=O)OC [methyl acrylate]
0.8

Please look at the items below and tell me chromatographic logP for each one, in order.
1. C=C(C)C(=O)NCCO [N-hydroxyethylmethacrylamide]
2. C=CC(=O)OC(C)(C)C [tert-butyl acrylate]
3. C=C(C)C(=O)OCCCC [n-butyl methacrylate]
4. C=C(C)C(=O)OCCO [2-hydroxyethyl methacrylate]
5. C=C(C)C(=O)NCO [N-hydroxymethylmethacrylamide]
6. C=CC(=O)OC1CCCCC1 [cyclohexyl acrylate]

1. -0.95
2. 2.06
3. 2.74
4. 0.43
5. -0.96
6. 2.76

Please look at the items below and tell me chromatographic logP for each one, in order.
1. C=CC(=O)NC [N-methylacrylamide]
2. C=CC(=O)OCCCCO [4-hydroxybutyl acrylate]
3. C=CC(N)=O [acrylamide]

1. -0.59
2. 0.59
3. -0.56
